measured_target: human chemokine receptor 2 isoform B (Homo sapiens, UniProt P41597)
Sequence (P41597 1-360 isoform P41597-2): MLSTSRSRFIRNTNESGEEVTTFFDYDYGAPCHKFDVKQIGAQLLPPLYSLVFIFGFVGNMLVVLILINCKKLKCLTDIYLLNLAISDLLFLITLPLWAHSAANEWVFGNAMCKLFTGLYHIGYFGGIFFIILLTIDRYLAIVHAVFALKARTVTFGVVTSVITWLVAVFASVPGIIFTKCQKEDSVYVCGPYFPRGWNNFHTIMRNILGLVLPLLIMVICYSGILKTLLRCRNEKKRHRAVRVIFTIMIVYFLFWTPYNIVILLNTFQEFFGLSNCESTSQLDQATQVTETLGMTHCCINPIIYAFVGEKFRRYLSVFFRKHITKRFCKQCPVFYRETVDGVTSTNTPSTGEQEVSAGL
procedure_details: Calcium mobilization assay (FLIPR, CHOK1-CCR2B-A5 cells, 20 nM MCP-1)
test_parameters: Ca mobilisation assay, CCR2, antagonist activity vs 20 nM MCP-1
Method: CHOK1-CCR2B-A5 cells (from Euroscreen) stably overexpressing the human chemokine receptor 2 isoform B were cultured in Nutrient Hams F12 medium supplemented with 5% FBS, 100 U/ml penicillin, 100 μg/ml streptomycin, 400 μg/ml G418 and 5 μg/ml puromycin. […] Test compounds were added to the assay plate and agonist activity was monitored as fluorescence for 80 seconds with a FLIPR (488 nm excitation; 510-570 nm emission; Molecular Devices). […]
readout_label: IC50 (nM)

[[record]]
molecule = "O=C(/C=C/c1ccc(F)c(Cl)c1)N1CCC(=O)N(CCCN2CCCCC2)CC1 [Example 11]"
reading_unit = "nM"
recorded_value = 363

[[record]]
molecule = "CC1CCCCC1NCCCN1CCN(C(=O)C=Cc2ccc(Cl)c(Cl)c2)CCC1=O (mixture of isomers) [Example 64]"
reading_unit = "nM"
recorded_value = 391


[a] CC1CC(O)CN(CCCCN2CCN(C(=O)C=Cc3ccc(Cl)c(Cl)c3)CCC2=O)C1 (mixture of isomers) [Example 482]
[b] O=C(/C=C/c1ccc(Cl)c(Cl)c1)N1CCC(=O)N(CCCN2CC[C@@H](O)[C@@H](F)C2)CC1 (racemic) [Example 233]
[c] CC1C(O)CCCN1CCCCN1CCN(C(=O)C=Cc2ccc(Cl)c(Cl)c2)CCC1=O (mixture of isomers) [Example 428]
[d] O=C(C=Cc1ccc(Cl)c(Cl)c1)N1CCC(=O)N(CCCN2CCC(O)C(F)C2)CC1 (mixture of isomers) [Example 231]
Q) Please give the order of these molecules when sorted by IC50, largest value leading. Answer by naming the labels in the order asked.
A) b, d, c, a

[I] CC1(C)CCN(C[C@H](O)CCN2CCN(C(=O)/C=C/c3ccc(F)c(Cl)c3)CCC2=O)CC1O (some centres unmarked) [Example 500]
[II] O=C(/C=C/c1ccc(Cl)c(Cl)c1)N1CCC(=O)N(C[C@@H](O)CN2CC[C@H](CO)[C@H](O)C2)CC1 (mixture of isomers) [Example 328]
Q) For the two items I and II , which reports the higher IC50 value? Please reply using the label of the selected record.
A) I

[I] COCC1C(O)CCC(C)N1CCCCN1CCN(C(=O)C=Cc2ccc(Cl)c(Cl)c2)CCC1=O (racemic) [Example 488]
[II] O=C(/C=C/c1ccc(Cl)c(Cl)c1)N1CCC(=O)N(CCCCN2CC[C@@H](O)[C@H](O)C2)CC1 (racemic) [Example 165]
[III] O=C(/C=C/c1ccc(Cl)c(Cl)c1)N1CCC(=O)N(CCN2CCC(O)(c3ccccc3)CC2)CC1 [Example 96]
Q) Please give the order of these molecules when sorted by IC50, largest value leading. Answer by naming the labels in the order asked.
A) III, I, II
(III: 1140 nM, I: 618 nM, II: 345 nM)

[P] COCC1(C)CCCN(CCCCN2CCN(C(=O)/C=C/c3ccc(Cl)c(Cl)c3)CCC2=O)C1 (racemic) [Example 446]
[Q] O=C(C=Cc1ccc(F)c(Cl)c1)N1CCC(=O)N(CCCN2CCC(F)C(O)C2)CC1 (mixture of isomers) [Example 213]
Q) For the two items P and Q , which reports the higher IC50 value? Please reply using the label of the selected record.
A) P
(P: 626 nM, Q: 421 nM)
